target: HLA-A*03:01 (Homo sapiens); assay: REVEAL Epitope Discovery System in vitro MHC-peptide binding score; details: positive control peptide set at 100%, greater than 50 = good or high affinity binding
PROPERTY_LABEL: A*03:01 In Vitro

> print(dat)
                              residue.codes  value.reported
1  IIFWVKRGR [9-mer of CD28/4-1BB junction region, mutation none]           24.30

Query: Returns the measured A*03:01 In Vitro for the input sequence. Input: IFWVQRGRK [9-mer variant junction peptide, K28Q]
Result: 36.70

Query: Returns the measured A*03:01 In Vitro for the input sequence. Input: WVKRGAKKL [9-mer variant junction peptide, R31A]
Result: 4.10

Query: Returns the measured A*03:01 In Vitro for the input sequence. Input: IIFWVQRGA [9-mer variant junction peptide, K28Q/R31A]
Result: 2.70

Query: Returns the measured A*03:01 In Vitro for the input sequence. Input: VAFIIFWVR [9-mer variant junction peptide, K28R]
Result: 0.70

Query: Returns the measured A*03:01 In Vitro for the input sequence. Input: WVKRGNKKL [9-mer variant junction peptide, R31N]
Result: 0.90

Query: Returns the measured A*03:01 In Vitro for the input sequence. Input: WVKRGHKKL [9-mer variant junction peptide, R31H]
Result: 1.40

Query: Returns the measured A*03:01 In Vitro for the input sequence. Input: IFWVSRGRK [9-mer variant junction peptide, K28S]
Result: 39.20

Query: Returns the measured A*03:01 In Vitro for the input sequence. Input: IFWVKRGAK [9-mer variant junction peptide, R31A]
Result: 22.00

----------
molecular target: HLA-A*02:01 (Homo sapiens, UniProt P04439, D140Y/D185E/D98H/E176V/E277Q/G131W/G231S/I119V/I121R/I166T/I218V/L300P/L318F/N151K/N90K/P208A/P217A/Q86G/Q94H/R138H/R169H/T345S); assay: REVEAL Epitope Discovery System in vitro MHC-peptide binding score; conditions: REVEAL score, positive control peptide set at 100%; greater than 50 = good or high affinity binding
PROPERTY_LABEL: A*02:01 In Vitro Score
Lab note: record just the number, no unit beside it.

Query: Returns the measured A*02:01 In Vitro Score for the input sequence. Input: WVQRGRKKL [9-mer variant junction peptide, K28Q]
Result: 8.10

Query: Returns the measured A*02:01 In Vitro Score for the input sequence. Input: IIFWVLRGR [9-mer variant junction peptide, K28L]
Result: 8.40

Query: Returns the measured A*02:01 In Vitro Score for the input sequence. Input: IFWVHRGRK [9-mer variant junction peptide, K28H]
Result: 7.10

----------
target: HLA-A*11:01 (Homo sapiens, UniProt P04439, A114D/D185E/E176A/F33Y/L180Q/S129P/T187R); test: REVEAL Epitope Discovery System in vitro MHC-peptide binding score; set-up: key: % binding, normalized to positive control peptide set at 100%; settings: binding normalized to positive control peptide set at 100%, greater than 50 considered good or high affinity binding
Label 0 if A*11:01 In Vitro Score falls below 30; label 1 in every other case.

> print(dat)
                              residue.codes  group
1  IIFWVKRGN [9-mer variant junction peptide, R31N]      1

Query: Exam item: decide whether the reported A*11:01 In Vitro Score for IIFWVKRGR [9-mer of CD28/4-1BB junction region, mutation none] is at least 30.
Result: 1

Query: Exam item: decide whether the reported A*11:01 In Vitro Score for FWVARGRKK [9-mer variant junction peptide, K28A] is at least 30.
Result: 0

Query: Exam item: decide whether the reported A*11:01 In Vitro Score for WVKRGSKKL [9-mer variant junction peptide, R31S] is at least 30.
Result: 0

Query: Exam item: decide whether the reported A*11:01 In Vitro Score for VAFIIFWVR [9-mer variant junction peptide, K28R] is at least 30.
Result: 1

Query: Exam item: decide whether the reported A*11:01 In Vitro Score for WVQRGNKKL [9-mer variant junction peptide, K28Q/R31N] is at least 30.
Result: 0

Query: Exam item: decide whether the reported A*11:01 In Vitro Score for IIFWVKRGL [9-mer variant junction peptide, R31L] is at least 30.
Result: 1
